Documented combination Emax across a set of compounds
system: RPMI-8402 (T-Lymphoblastic Leukemia); assay: combination Emax (second highest fraction inhibited in the dose matrix, 72 h); higher = more inhibition; extreme values may be limits of the assay
metric: combination Emax

INSERT INTO measurements (compound, value_observed) VALUES
  ('N#Cc1cnc(Nc2cc(NC[C@H]3CNCCO3)c(C(F)(F)F)cn2)cn1 [SRA737] + O=c1[nH]cc(F)c(=O)[nH]1 [5-Fluorouracil] (first compound max 10 µM, 7x7, partner max 20 µM)', 1),
  ('CC1(C)CCC(CN2CCN(c3ccc(C(=O)NS(=O)(=O)c4ccc(NCC5CCOCC5)c([N+](=O)[O-])c4)c(Oc4cnc5[nH]ccc5c4)c3)CC2)=C(c2ccc(Cl)cc2)C1 [Venetoclax] + C[C@@H](Nc1cc(F)cc(F)c1)c1cc(C(=O)N(C)C)cc2c(=O)cc(N3CCOCC3)oc12 [AZD8186] (first compound max 1 µM, 7x7, partner max 3 µM)', 0.431),
  ('Cc1c2c(nn1C)CSCc1cc(n(C)n1)CSc1cc(c3ccccc3c1)OCCCc1c(C(=O)O)n(C)c3c-2c(Cl)ccc13 [AZD5991] + Nc1ccn([C@@H]2O[C@H](CO)[C@@H](O)C2(F)F)c(=O)n1 [Gemcitabine] (first compound max 1 µM, 7x7, partner max 0.3 µM)', 1),
  ('Cc1cc2ncnn2cc1Nc1ncc2c(n1)n(C1CCOCC1)c(=O)n2C [AZD7648] + CCN(CCO)CCCOc1ccc2c(Nc3cc(CC(=O)Nc4cccc(F)c4)[nH]n3)ncnc2c1 [AZD2811] (first compound max 10 µM, 7x7, partner max 1 µM)', 0.886),
  ('Cc1c2c(nn1C)CSCc1cc(n(C)n1)CSc1cc(c3ccccc3c1)OCCCc1c(C(=O)O)n(C)c3c-2c(Cl)ccc13 [AZD5991] + C[C@@H]1COCCN1C2=NC(=NC(=C2)C3(CC3)[S@](=N)(=O)C)C4=C5C=CNC5=NC=C4 [AZD6738] (first compound max 1 µM, 7x7, partner max 10 µM)', 0.999),
  ('CCN(CCO)CCCOc1ccc2c(Nc3cc(CC(=O)Nc4cccc(F)c4)[nH]n3)ncnc2c1 [AZD2811] + C=CCn1c(=O)c2cnc(Nc3ccc(N4CCN(C)CC4)cc3)nc2n1-c1cccc(C(C)(C)O)n1 [AZD1775] (first compound max 1 µM, partner max 1 µM)', 1),
  ('CN(CCO)CC[C@H](CSc1ccccc1)Nc1ccc(S(=O)(=O)NC(=O)c2ccc(N3CCC([C@@H](O)c4ccccc4-c4ccc(Cl)cc4)CC3)cc2)cc1S(=O)(=O)C(F)(F)F [AZD4320] + Nc1ccn([C@@H]2O[C@H](CO)[C@@H](O)C2(F)F)c(=O)n1 [Gemcitabine] (first compound max 1 µM, 7x7, partner max 0.3 µM)', 1);

* * *

system: C32 (Melanoma); test: Bliss excess, mean over the matrix (fraction); higher = more synergy
Documented Bliss excess across a set of compounds
metric: Bliss excess

INSERT INTO measurements (compound, metric, value_observed) VALUES
  ('CN(CCO)CC[C@H](CSc1ccccc1)Nc1ccc(S(=O)(=O)NC(=O)c2ccc(N3CCC([C@@H](O)c4ccccc4-c4ccc(Cl)cc4)CC3)cc2)cc1S(=O)(=O)C(F)(F)F [AZD4320] + CN(C)CCCOc1ccc(-c2ccc3ncc4c(c3c2)n(C2CCOCC2)c(=O)n4C)cn1 [AZD0156] (first compound max 1 µM, 7x7, partner max 1 µM)', 'Bliss excess', -0.0182),
  ('C[C@@H](c1ccc2nccn2c1)n1nnc2ncc(-c3cnn(C)c3)nc21 [Savolitinib] + CC1(C)CCC(CN2CCN(c3ccc(C(=O)NS(=O)(=O)c4ccc(NCC5CCOCC5)c([N+](=O)[O-])c4)c(Oc4cnc5[nH]ccc5c4)c3)CC2)=C(c2ccc(Cl)cc2)C1 [Venetoclax] (first compound max 1 µM, 7x7, partner max 1 µM)', 'Bliss excess', -0.0338);

* * *

test system: TK (B-Cell Non-Hodgkin's Lymphoma); test: Bliss excess, mean over the matrix (fraction); higher = more synergy
metric: Bliss excess

INSERT INTO assay_data (compound, metric, value_observed) VALUES
  ('CN(CCO)CC[C@H](CSc1ccccc1)Nc1ccc(S(=O)(=O)NC(=O)c2ccc(N3CCC([C@@H](O)c4ccccc4-c4ccc(Cl)cc4)CC3)cc2)cc1S(=O)(=O)C(F)(F)F [AZD4320] + Cc1cc2ncnn2cc1Nc1ncc2c(n1)n(C1CCOCC1)c(=O)n2C [AZD7648] (first compound max 1 µM, 7x7, partner max 10 µM)', 'Bliss excess', -0.0018);

* * *

system: NCI-H2170 (Squamous Cell Lung Carcinoma); assay: combination Emax (second highest fraction inhibited in the dose matrix, 72 h); higher = more inhibition; extreme values may be limits of the assay
Assign class by combination Emax: not lower than 0.7 means true (1); lower than 0.7 means false (0).

INSERT INTO results (compound, target_entity, cat) VALUES
  ('CC1(C)CCC(CN2CCN(c3ccc(C(=O)NS(=O)(=O)c4ccc(NCC5CCOCC5)c([N+](=O)[O-])c4)c(Oc4cnc5[nH]ccc5c4)c3)CC2)=C(c2ccc(Cl)cc2)C1 [Venetoclax] + CN(C)CCCOc1ccc(-c2ccc3ncc4c(c3c2)n(C2CCOCC2)c(=O)n4C)cn1 [AZD0156] (first compound max 1 µM, 7x7, partner max 1 µM)', 'NCI-H2170 (Squamous Cell Lung Carcinoma)', 'false (0)'),
  ('C=CCn1c(=O)c2cnc(Nc3ccc(N4CCN(C)CC4)cc3)nc2n1-c1cccc(C(C)(C)O)n1 [AZD1775] + C1CN(CCC1(C(=O)N[C@@H](CCO)C2=CC=C(C=C2)Cl)N)C3=NC=NC4=C3C=CN4 [Capivasertib] (first compound max 3 µM, partner max 3 µM)', 'NCI-H2170 (Squamous Cell Lung Carcinoma)', 'true (1)'),
  ('Cc1c2c(nn1C)CSCc1cc(n(C)n1)CSc1cc(c3ccccc3c1)OCCCc1c(C(=O)O)n(C)c3c-2c(Cl)ccc13 [AZD5991] + CN(C)CCCOc1ccc(-c2ccc3ncc4c(c3c2)n(C2CCOCC2)c(=O)n4C)cn1 [AZD0156] (first compound max 1 µM, 7x7, partner max 1 µM)', 'NCI-H2170 (Squamous Cell Lung Carcinoma)', 'false (0)'),
  ('Cc1cc2ncnn2cc1Nc1ncc2c(n1)n(C1CCOCC1)c(=O)n2C [AZD7648] + C[C@@H]1COCCN1C2=NC(=NC(=C2)C3(CC3)[S@](=N)(=O)C)C4=C5C=CNC5=NC=C4 [AZD6738] (first compound max 10 µM, 7x7, partner max 10 µM)', 'NCI-H2170 (Squamous Cell Lung Carcinoma)', 'false (0)'),
  ('CN(CCO)CC[C@H](CSc1ccccc1)Nc1ccc(S(=O)(=O)NC(=O)c2ccc(N3CCC([C@@H](O)c4ccccc4-c4ccc(Cl)cc4)CC3)cc2)cc1S(=O)(=O)C(F)(F)F [AZD4320] + Cc1cc2ncnn2cc1Nc1ncc2c(n1)n(C1CCOCC1)c(=O)n2C [AZD7648] (first compound max 1 µM, 7x7, partner max 10 µM)', 'NCI-H2170 (Squamous Cell Lung Carcinoma)', 'false (0)'),
  ('CN(CCO)CC[C@H](CSc1ccccc1)Nc1ccc(S(=O)(=O)NC(=O)c2ccc(N3CCC([C@@H](O)c4ccccc4-c4ccc(Cl)cc4)CC3)cc2)cc1S(=O)(=O)C(F)(F)F [AZD4320] + C1CN(CCC1(C(=O)N[C@@H](CCO)C2=CC=C(C=C2)Cl)N)C3=NC=NC4=C3C=CN4 [Capivasertib] (first compound max 1 µM, 7x7, partner max 3 µM)', 'NCI-H2170 (Squamous Cell Lung Carcinoma)', 'true (1)');

* * *

system: HT-1197 (Bladder Carcinoma); test: Bliss excess, mean over the matrix (fraction); higher = more synergy
Documented Bliss excess across a set of compounds
metric: Bliss excess

INSERT INTO assay_data (compound, metric, value_observed) VALUES
  ('NC1(C(=O)N[C@@H](CCO)c2ccc(Cl)cc2)CCN(c2ncnc3[nH]ccc23)CC1 [Capivasertib] + Cn1cnc2c(F)c(Nc3ccc(Br)cc3Cl)c(C(=O)NOCCO)cc21 [Selumetinib] (first compound max 10 µM, 7x7, partner max 10 µM)', 'Bliss excess', 0.0646),
  ('CN(CCO)CC[C@H](CSc1ccccc1)Nc1ccc(S(=O)(=O)NC(=O)c2ccc(N3CCC([C@@H](O)c4ccccc4-c4ccc(Cl)cc4)CC3)cc2)cc1S(=O)(=O)C(F)(F)F [AZD4320] + Cn1cnc2c(F)c(Nc3ccc(Br)cc3Cl)c(C(=O)NOCCO)cc21 [Selumetinib] (first compound max 1 µM, 7x7, partner max 3 µM)', 'Bliss excess', 0.0079);

* * *

system: RPMI-8402 (T-Lymphoblastic Leukemia); test: combination Emax (second highest fraction inhibited in the dose matrix, 72 h); higher = more inhibition; extreme values may be limits of the assay
Documented combination Emax across a set of compounds
metric: combination Emax

INSERT INTO assay_data (compound, value_observed) VALUES
  ('CC1(C)CCC(CN2CCN(c3ccc(C(=O)NS(=O)(=O)c4ccc(NCC5CCOCC5)c([N+](=O)[O-])c4)c(Oc4cnc5[nH]ccc5c4)c3)CC2)=C(c2ccc(Cl)cc2)C1 [Venetoclax] + COc1cc(Nc2ncc3c(n2)-c2ccc(Cl)cc2C(c2c(F)cccc2OC)=NC3)ccc1C(=O)O [Alisertib] (first compound max 1 µM, 7x7, partner max 10 µM)', 0.718),
  ('COc1cccc(OCCCN)c1-c1cc(Nc2cnc(C#N)cn2)n[nH]1 [Prexasertib] + Cc1cc2ncnn2cc1Nc1ncc2c(n1)n(C1CCOCC1)c(=O)n2C [AZD7648] (first compound max 1 µM, 7x7, partner max 10 µM)', 1),
  ('COc1cccc(OCCCN)c1-c1cc(Nc2cnc(C#N)cn2)n[nH]1 [Prexasertib] + CN(C)CCCOc1ccc(-c2ccc3ncc4c(c3c2)n(C2CCOCC2)c(=O)n4C)cn1 [AZD0156] (first compound max 1 µM, 7x7, partner max 1 µM)', 1),
  ('Cc1c2c(nn1C)CSCc1cc(n(C)n1)CSc1cc(c3ccccc3c1)OCCCc1c(C(=O)O)n(C)c3c-2c(Cl)ccc13 [AZD5991] + Cn1cnc2c(F)c(Nc3ccc(Br)cc3Cl)c(C(=O)NOCCO)cc21 [Selumetinib] (first compound max 1 µM, 7x7, partner max 3 µM)', 0.692);
